target of assay: WT hSERT (Homo sapiens, UniProt P31645)
method: Saturation binding of [3H]vortioxetine / [3H]imipramine to HEK293T membranes expressing hSERT
Design: expressed in transfected cells; host or cells: HEK293T
measurement context: WT hSERT C-terminally fused to 1D4 tag, [3H]ligand saturation binding, mean±s.e.m.
parameter measured: Kd (nM)
The reply should contain only the number, in nM.

Given Cc1ccc(Sc2ccccc2N2CCNCC2)c(C)c1 , state its recorded Kd. 6.3

---

target of assay: hSERT I168azF (Homo sapiens, UniProt P31645)
Sequence (P31645 whole entry): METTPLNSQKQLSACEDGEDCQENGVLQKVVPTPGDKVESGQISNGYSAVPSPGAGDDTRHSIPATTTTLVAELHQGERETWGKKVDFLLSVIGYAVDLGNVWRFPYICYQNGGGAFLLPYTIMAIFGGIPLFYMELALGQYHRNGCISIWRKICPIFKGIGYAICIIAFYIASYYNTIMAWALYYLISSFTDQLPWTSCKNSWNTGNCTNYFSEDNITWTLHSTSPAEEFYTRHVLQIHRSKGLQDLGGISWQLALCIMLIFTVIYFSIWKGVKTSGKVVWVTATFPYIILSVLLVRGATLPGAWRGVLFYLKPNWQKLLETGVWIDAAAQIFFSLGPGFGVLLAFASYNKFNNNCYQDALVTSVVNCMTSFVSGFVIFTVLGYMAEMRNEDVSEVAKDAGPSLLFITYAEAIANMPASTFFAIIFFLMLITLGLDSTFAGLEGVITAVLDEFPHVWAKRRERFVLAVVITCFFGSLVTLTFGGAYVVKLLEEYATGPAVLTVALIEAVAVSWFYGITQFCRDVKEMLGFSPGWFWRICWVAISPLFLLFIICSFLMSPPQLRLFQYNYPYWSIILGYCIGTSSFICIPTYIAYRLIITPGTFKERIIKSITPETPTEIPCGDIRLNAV
method: [3H]5-HT uptake assay (kinetics and uptake inhibition) in HEK293T cells
measurement context: [3H]5-HT uptake inhibition, I168azF (S1 mutant); mean ± s.e.m.
parameter measured: Ki
Answer as a quantity: numeral, then unit.

Field: Ki (hSERT I168azF (Homo sapiens, UniProt P31645)). Entry: Cc1ccc(Sc2ccccc2N2CCNCC2)c(C)c1 19 nM

---

target of assay: hSERT F341azF (Homo sapiens, UniProt P31645)
Sequence (P31645 whole entry): as above
method: [3H]5-HT uptake assay (kinetics and uptake inhibition) in HEK293T cells
measurement context: [3H]5-HT uptake inhibition, F341azF (S1 mutant); mean ± s.e.m.
parameter measured: pKi
The meaning of pKi here: minus log10 of the concentration in molar units.

Fill blank: measured pKi of the compound Cc1ccc(Sc2ccccc2N2CCNCC2)c(C)c1 is ____. 7.37

---

target of assay: hSERT Y487azF (Homo sapiens, UniProt P31645)
Sequence (P31645 whole entry): as above
method: [3H]5-HT uptake assay (kinetics and uptake inhibition) in HEK293T cells
measurement context: [3H]5-HT uptake inhibition, Y487azF (S2 mutant); mean ± s.e.m.
parameter measured: pKi
Quick note: pKi values are minus log10 of concentrations in mol/L.

// lookup pKi for Cc1ccc(Sc2ccccc2N2CCNCC2)c(C)c1 7.02

---

target of assay: hSERT Y95azF (Homo sapiens, UniProt P31645)
Sequence (P31645 whole entry): as above
method: [3H]5-HT uptake assay (kinetics and uptake inhibition) in HEK293T cells
measurement context: [3H]5-HT uptake inhibition, Y95azF (S1 mutant); mean ± s.e.m.
parameter measured: Ki

Please report the recorded Ki for Cc1ccc(Sc2ccccc2N2CCNCC2)c(C)c1 . 1240 nM

---

target of assay: WT hSERT (Homo sapiens)
method: Saturation binding of [3H]vortioxetine / [3H]imipramine to HEK293T membranes expressing hSERT
Set-up: expressed in transfected cells; host or cells: HEK293T
measurement context: WT hSERT without 1D4 tag, [3H]ligand saturation binding
parameter measured: pKd
Please report pKd as the negative decimal logarithm of the molar concentration, giving only the number.

So what does the record say about pKd for Cc1ccc(Sc2ccccc2N2CCNCC2)c(C)c1 [vortioxetine] ? 8.21

---

target of assay: hSERT K490azF (Homo sapiens, UniProt P31645)
Sequence (P31645 whole entry): as above
method: [3H]5-HT uptake assay (kinetics and uptake inhibition) in HEK293T cells
measurement context: [3H]5-HT uptake inhibition, K490azF (S2 mutant); mean ± s.e.m.
parameter measured: pKi
# pKi is unitless: minus log10 of the molar concentration; print number only

Find the recorded pKi belonging to Cc1ccc(Sc2ccccc2N2CCNCC2)c(C)c1 and report it. 7.25

---

target of assay: hSERT Y107azF (Homo sapiens)
Sequence (P31645 whole entry): as above
method: [3H]5-HT uptake assay (kinetics and uptake inhibition) in HEK293T cells
measurement context: [3H]5-HT uptake inhibition, Y107azF (S2 mutant); mean ± s.e.m.
parameter measured: Ki (nM)
Number in nM, nothing else.

Query (molecule): Cc1ccc(Sc2ccccc2N2CCNCC2)c(C)c1 ; field requested: Ki 38
